Target: SARS-CoV-2 3CL protease (Severe acute respiratory syndrome coronavirus 2, UniProt P0DTD1)
Construct: measures the activity of full-length SARS-CoV-2 3CL protease
Assay: SARS-CoV-2 Coronavirus 3C Protease FRET Assay
Type: biochemical
Settings: Examples 1-13; Morrison equation fit, 15 nM enzyme, 25 μM peptide substrate, 60 minutes at 23° C.; read-out: Geometric Mean Ki
readout.name: Ki (nM)
Express it in nM; write the number only.

// known answers, use as guide
>  <molecule>
CC(C)(C)[C@H](NS(C)(=O)=O)C(=O)N1C[C@H]2[C@@H]([C@H]1C(=O)N[C@@H](C[C@@H]1CCNC1=O)C(=O)COc1ccc(F)cc1F)C2(C)C [Example 13]

>  <readout.name>
Ki

>  <recorded.number>
1.78

$$$$
>  <molecule>
CC(C)(C)[C@H](NS(=O)(=O)C(F)(F)F)C(=O)N1C[C@H]2[C@@H]([C@H]1C(=O)N[C@@H](C[C@@H]1CCNC1=O)C(=O)COc1cccc(C(F)(F)F)c1)C2(C)C [Example 10]

>  <readout.name>
Ki

>  <recorded.number>
8.34

$$$$
>  <molecule>
CC(C)[C@H](NS(=O)(=O)C(F)(F)F)C(=O)N1C[C@H]2[C@@H]([C@H]1C(=O)N[C@@H](C[C@@H]1CCNC1=O)C(=O)COc1ccc(F)cc1F)C2(C)C [Example 4]

>  <readout.name>
Ki

>  <recorded.number>
6.34

$$$$
>  <molecule>
CC(C)(C)[C@H](NC(=O)C(F)(F)F)C(=O)N1C[C@H]2[C@@H]([C@H]1C(=O)N[C@@H](C[C@@H]1CCNC1=O)C(=O)COc1cccc(C(F)(F)F)c1)C2(C)C [Example 12]

>  <readout.name>
Ki

>  <recorded.number>
6.38

$$$$
>  <molecule>
Cn1nc(C(F)(F)F)cc1OCC(=O)[C@H](C[C@@H]1CCNC1=O)NC(=O)[C@@H]1[C@@H]2[C@H](CN1C(=O)[C@@H](NS(C)(=O)=O)C(C)(C)C)C2(C)C [Example 7]

>  <readout.name>
Ki

>  <recorded.number>
2.88

$$$$
>  <molecule>
CC(C)[C@H](NC(=O)C(F)(F)F)C(=O)N1C[C@H]2[C@@H]([C@H]1C(=O)N[C@@H](C[C@@H]1CCNC1=O)C(=O)COc1ccc(F)cc1F)C2(C)C [Example 1]

>  <readout.name>
Ki

>  <recorded.number>
2.02

$$$$
>  <molecule>
CC(C)[C@H](NS(=O)(=O)C(F)(F)F)C(=O)N1C[C@H]2[C@@H]([C@H]1C(=O)N[C@@H](C[C@@H]1CCNC1=O)C(=O)COc1cc(C(F)(F)F)nn1C)C2(C)C [Example 11]

>  <readout.name>
Ki

>  <recorded.number>
13.5

$$$$

Now take the following molecule into account.
Give the reported Ki for this molecule. CC(C)[C@H](NS(=O)(=O)C(F)(F)F)C(=O)N1C[C@H]2[C@@H]([C@H]1C(=O)N[C@@H](C[C@@H]1CCNC1=O)C(=O)COc1cccc(C(F)(F)F)c1)C2(C)C [Example 5] 10.6

###

Test system: SARS-CoV-2 (USA_WA1/2020)
Assay: Antiviral Activity from SARS-CoV-2 Infection (cytopathic effect, Cell Titer-Glo)
Type: cell-based
Settings: Severe acute respiratory syndrome coronavirus 2, Vero C1008, 72 h, VeroE6 cells enriched for hACE2, MOI 0.002, 3-day incubation; tested alone or with P-gp inhibitor CP-100356 2 μM (table does not say which); read-out: Geometric Mean EC50
readout.name: EC50 (nM)
Kindly answer with a numeric value in nM, unit omitted.

>  <compound>
CC(C)c1cccc(OCC(=O)[C@H](C[C@@H]2CCNC2=O)NC(=O)[C@@H]2[C@@H]3[C@H](CN2C(=O)[C@@H](NC(=O)C(F)(F)F)C(C)C)C3(C)C)c1 [Example 56]

>  <target>
SARS-CoV-2 (USA_WA1/2020)

>  <recorded.number>
119

$$$$

Respond only with EC50 recorded for CC(C)[C@H](NC(=O)C(F)(F)F)C(=O)N1C[C@H]2[C@@H]([C@H]1C(=O)N[C@@H](C[C@@H]1CCNC1=O)C(=O)COc1cc(F)cc(F)c1)C2(C)C [Example 58] 88.7

Output EC50 of COC(=O)N[C@H](C(=O)N1C[C@H]2[C@@H]([C@H]1C(=O)N[C@@H](C[C@@H]1CCNC1=O)C(=O)COc1cccc(Cl)c1)C2(C)C)C(C)C [Example 25] 38.2

Please report the measured EC50 for CCc1cc(OCC(=O)[C@H](C[C@@H]2CCNC2=O)NC(=O)[C@@H]2[C@@H]3[C@H](CN2C(=O)[C@@H](NC(=O)C(F)(F)F)C(C)(C)C)C3(C)C)n(C)n1 [Example 26] 171

###

Biological target: SARS-CoV-2 3CL protease (Severe acute respiratory syndrome coronavirus 2, UniProt P0DTD1)
Construct: measures the activity of full-length SARS-CoV-2 3CL protease
Experiment: SARS-CoV-2 Coronavirus 3C Protease FRET Assay
Format: biochemical
Conditions: Examples 14-78 and 114 (second head of Table 2); Morrison equation fit, 15 nM enzyme, 25 μM peptide substrate; read-out: Geometric Mean Ki (nM) IC50
readout.name: Ki
Provide the measurement as a number trailed by its unit.

>  <sample.smiles>
Cc1cc(OCC(=O)[C@H](C[C@@H]2CCNC2=O)NC(=O)[C@@H]2[C@@H]3[C@H](CN2C(=O)[C@@H](NC(=O)C(F)(F)F)C(C)C)C3(C)C)no1

>  <target>
SARS-CoV-2 3CL protease (Severe acute respiratory syndrome coronavirus 2, UniProt P0DTD1)

>  <Ki>
31.7 nM

$$$$

Provide Ki value for the following compound: `COc1ccc(COCC(=O)[C@H](C[C@@H]2CCNC2=O)NC(=O)[C@@H]2[C@@H]3[C@H](CN2C(=O)[C@@H](NC(=O)C(F)(F)F)C(C)(C)C)C3(C)C)cc1` 3.48 nM

Give a short answer stating reported Ki for `COC(=O)N[C@H](C(=O)N1C[C@H]2[C@@H]([C@H]1C(=O)N[C@@H](C[C@@H]1CCNC1=O)C(=O)COc1ccc(F)cc1)C2(C)C)C(C)(C)C` . 2.2 nM

###

Target: SARS-CoV-2 3CL protease (Severe acute respiratory syndrome coronavirus 2)
Construct: measures the activity of full-length SARS-CoV-2 3CL protease
Test: SARS-CoV-2 Coronavirus 3C Protease FRET Assay
Type: biochemical
Conditions: Examples 14-78 and 114 (second head of Table 2); Morrison equation fit, 15 nM enzyme, 25 μM peptide substrate; read-out: Geometric Mean Ki (nM) IC50
Entries annotated with measured Ki
Respond numerically; units are nM and should not be typed.

Consider the following illustrative entries.
>  <compound>
CC(C)[C@H](NC(=O)C(F)(F)F)C(=O)N1C[C@H]2[C@@H]([C@H]1C(=O)N[C@@H](C[C@@H]1CCNC1=O)C(=O)COc1nnc(C(F)(F)F)n1C)C2(C)C [Example 74]

>  <recorded.number>
919

$$$$
>  <compound>
CC(C)[C@H](NS(=O)(=O)C(F)(F)F)C(=O)N1C[C@H]2[C@@H]([C@H]1C(=O)N[C@@H](C[C@@H]1CC(O)NC1=O)C(=O)COc1ccc(F)cc1F)C2(C)C (some centres unmarked) [Example 54]

>  <recorded.number>
11.3

$$$$
>  <compound>
COC(=O)N[C@H](C(=O)N1C[C@H]2[C@@H]([C@H]1C(=O)N[C@@H](C[C@@H]1CCNC1=O)C(=O)COc1cccc(Cl)c1)C2(C)C)C(C)(C)C [Example 16]

>  <recorded.number>
0.21

$$$$
>  <compound>
CC(C)C[C@@H](C(=O)N1C[C@H]2[C@@H]([C@H]1C(=O)N[C@@H](C[C@@H]1CCNC1=O)C(=O)COc1cc(C(F)(F)F)nn1C)C2(C)C)N(C)C(C)C (single isomer, unassigned) [Example 73]

>  <recorded.number>
962

$$$$

Here is the next item to consider.
Look up SARS-CoV-2 3CL protease (Severe acute respiratory syndrome coronavirus 2) data: Ki of Cc1noc(OCC(=O)[C@H](C[C@@H]2CCNC2=O)NC(=O)[C@@H]2[C@@H]3[C@H](CN2C(=O)[C@@H](NC(=O)C(F)(F)F)C(C)C)C3(C)C)n1 [Example 76] , then report it. 3840

###

log10 of Ki listing for selected compounds.
Target: SARS-CoV-2 3CL protease (Severe acute respiratory syndrome coronavirus 2, UniProt P0DTD1)
Construct: measures the activity of full-length SARS-CoV-2 3CL protease
Experiment: SARS-CoV-2 Coronavirus 3C Protease FRET Assay
Assay type: biochemical
Conditions: Examples 14-78 and 114 (second head of Table 2); Morrison equation fit, 15 nM enzyme, 25 μM peptide substrate; read-out: Geometric Mean Ki (nM) IC50
Recall that a logarithmic scale is used here: each number is log10 of Ki in nM.

Previously resolved entries follow.
>  <compound>
CC(C)[C@H](NS(=O)(=O)C(F)(F)F)C(=O)N1C[C@H]2[C@@H]([C@H]1C(=O)N[C@@H](C[C@@H]1CC(=O)NC1=O)C(=O)COc1ccc(F)cc1F)C2(C)C [Example 49]

>  <readout.name>
log10 of Ki

>  <recorded.number>
1.00

$$$$
>  <compound>
CC(C)(C)[C@H](NS(=O)(=O)C(F)(F)F)C(=O)N1C[C@H]2[C@@H]([C@H]1C(=O)N[C@@H](C[C@@H]1CCNC1=O)C(=O)COc1cc(F)ccc1F)C2(C)C [Example 34]

>  <readout.name>
log10 of Ki

>  <recorded.number>
0.84

$$$$
>  <compound>
Cc1nsnc1OCC(=O)[C@H](C[C@@H]1CCNC1=O)NC(=O)[C@@H]1[C@@H]2[C@H](CN1C(=O)[C@@H](NC(=O)C(F)(F)F)C(C)C)C2(C)C [Example 46]

>  <readout.name>
log10 of Ki

>  <recorded.number>
0.91

$$$$
>  <compound>
CCC([C@H](NS(=O)(=O)C(F)(F)F)C(=O)N1C[C@H]2[C@@H]([C@H]1C(=O)N[C@@H](C[C@@H]1CCNC1=O)C(=O)COc1ccc(F)cc1F)C2(C)C)C(F)(F)F (stereo in doubt) [Example 63]

>  <readout.name>
log10 of Ki

>  <recorded.number>
1.73

$$$$
>  <compound>
CCC([C@H](NC(=O)C(F)(F)F)C(=O)N1C[C@H]2[C@@H]([C@H]1C(=O)N[C@@H](C[C@@H]1CCNC1=O)C(=O)COc1ccc(F)cc1F)C2(C)C)C(F)(F)F (stereo in doubt) [Example 57]

>  <readout.name>
log10 of Ki

>  <recorded.number>
1.24

$$$$

Give SARS-CoV-2 3CL protease (Severe acute respiratory syndrome coronavirus 2, UniProt P0DTD1) log10 of Ki for the following compound: CC(C)[C@H](NC(=O)C(F)(F)F)C(=O)N1C[C@H]2[C@@H]([C@H]1C(=O)N[C@@H](C[C@@H]1CCNC1=O)C(=O)COc1nc(C(F)(F)F)nn1C)C2(C)C [Example 55] 1.06

Please indicate recorded log10 of Ki of CC(C)[C@H](NC(=O)C(F)(F)F)C(=O)N1C[C@H]2[C@@H]([C@H]1C(=O)N[C@@H](C[C@@H]1CCNC1=O)C(=O)COc1ccc(F)c(F)c1)C2(C)C [Example 48] measured with SARS-CoV-2 3CL protease (Severe acute respiratory syndrome coronavirus 2, UniProt P0DTD1). 0.90
